Exercise: state measured EC50 for each of the molecules provided.
# SYSTEM_UNDER_TEST: mu receptor-G protein interaction (Homo sapiens, UniProt P35372)
# Sequence (P62871 whole entry, one chain of several): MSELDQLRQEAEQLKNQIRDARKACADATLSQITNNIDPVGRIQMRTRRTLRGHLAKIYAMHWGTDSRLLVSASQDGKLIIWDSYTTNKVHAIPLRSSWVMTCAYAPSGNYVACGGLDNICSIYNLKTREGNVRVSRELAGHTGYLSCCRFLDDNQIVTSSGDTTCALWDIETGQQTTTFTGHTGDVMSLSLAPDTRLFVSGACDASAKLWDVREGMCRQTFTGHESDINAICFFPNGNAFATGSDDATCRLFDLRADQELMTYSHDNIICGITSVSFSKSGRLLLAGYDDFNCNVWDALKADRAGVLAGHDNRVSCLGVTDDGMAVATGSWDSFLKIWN
# TEST_SUMMARY: BRET mu-G protein interaction assay (membranes of SH-SY5Y cells, mu-RLuc/Gβ1-RGFP)
Answers are plain numbers, in nM.

Observe how each entry below is paired with its result.
molecule="Cc1cc(O)cc(C)c1C[C@H](N)C(=O)N1CCC[C@H]1C(=O)NC[C@@H](Cc1cccc2ccccc12)C(=O)N[C@@H](Cc1ccccc1)C(N)=O [analog 11, Dmt-Pro-(R)-β ^ 2 -1-Nal-Phe-NH2]" system_under_test="mu receptor-G protein interaction (Homo sapiens, UniProt P35372)" observed=4.9
molecule="Cc1cc(O)cc(C)c1C[C@H](N)C(=O)N1CCCC[C@@H]1C(=O)N[C@@H](Cc1ccccc1)C(=O)N[C@@H](Cc1ccccc1)C(N)=O [analog 3, Dmt-(R)-Pip-Phe-Phe-NH2]" system_under_test="mu receptor-G protein interaction (Homo sapiens, UniProt P35372)" observed=1.91

Hey, quick one: what's EC50 for each of these?
1. NC(=O)[C@H](Cc1ccccc1)NC(=O)C[C@@H](Cc1cccc2ccccc12)NC(=O)[C@@H]1CCCN1C(=O)[C@@H](N)Cc1ccc(O)cc1 [analog 12, Tyr-Pro-(R)-β ^ 3 -1-Nal-Phe-NH2]
2. NC(=O)[C@H](Cc1ccccc1)NC(=O)[C@H](Cc1ccccc1)NC(=O)[C@H]1CCCCN1C(=O)[C@@H](N)Cc1ccc(O)cc1 [analog 2, Tyr-(R)-Pip-Phe-Phe-NH2]

Ans.
[77.6, 38]

----------
# SYSTEM_UNDER_TEST: human recombinant mu opioid receptor (Homo sapiens)
# Construct: purchased; host or cells: CHO cells (membranes)
# Sequence (P35372 whole entry): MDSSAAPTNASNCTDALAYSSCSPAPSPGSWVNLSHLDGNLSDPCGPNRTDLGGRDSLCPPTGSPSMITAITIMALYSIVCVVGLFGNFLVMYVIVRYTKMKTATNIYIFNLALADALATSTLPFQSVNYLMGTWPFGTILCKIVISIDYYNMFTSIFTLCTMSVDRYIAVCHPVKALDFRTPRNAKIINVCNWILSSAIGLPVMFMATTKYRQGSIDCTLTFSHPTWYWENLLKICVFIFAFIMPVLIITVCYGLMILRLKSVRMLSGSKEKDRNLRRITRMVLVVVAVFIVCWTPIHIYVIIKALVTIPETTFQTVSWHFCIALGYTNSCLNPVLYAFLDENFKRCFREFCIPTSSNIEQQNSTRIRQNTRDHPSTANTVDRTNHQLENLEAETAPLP
# TEST_SUMMARY: Radioligand binding, [3H]DAMGO displacement, CHO cell membranes
# CONDITION_NOTES: [3H]DAMGO, n ≥ 3; read-out: Ki ± SEM, mu
METRIC: pKi
Answers are plain numbers, as −log10 of the molar value.

molecule="C[C@H](CNC(=O)[C@@H](N)Cc1ccc(O)cc1)C(=O)N[C@@H](Cc1ccccc1)C(=O)N[C@@H](Cc1ccccc1)C(N)=O [analog 6, Tyr-(R)-β ^ 2 -Ala-Phe-Phe-NH2]" system_under_test="human recombinant mu opioid receptor (Homo sapiens)" observed=7.33

Qu. Determine its reported pKi: NC(=O)[C@H](Cc1ccccc1)NC(=O)[C@H](Cc1ccccc1)NC(=O)[C@@H]1CCCN(C(=O)[C@@H](N)Cc2ccc(O)cc2)C1 [analog 4, Tyr-(R)-Nip-Phe-Phe-NH2]
Ans. 9.07

----------
# SYSTEM_UNDER_TEST: delta-opioid receptor (Homo sapiens, UniProt P41143)
# Sequence (P41143 whole entry): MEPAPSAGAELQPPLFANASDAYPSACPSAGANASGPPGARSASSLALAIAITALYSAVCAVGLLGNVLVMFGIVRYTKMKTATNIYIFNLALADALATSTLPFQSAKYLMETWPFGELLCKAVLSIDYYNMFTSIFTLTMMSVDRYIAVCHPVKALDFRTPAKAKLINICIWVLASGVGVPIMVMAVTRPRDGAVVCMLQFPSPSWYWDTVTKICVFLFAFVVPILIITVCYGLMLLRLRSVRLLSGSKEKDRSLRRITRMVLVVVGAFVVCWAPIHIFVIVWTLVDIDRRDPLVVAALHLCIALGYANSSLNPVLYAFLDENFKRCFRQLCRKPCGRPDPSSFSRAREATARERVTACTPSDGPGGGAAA
# TEST_SUMMARY: Calcium mobilization assay, CHO delta cells expressing GαqG66Di5
METRIC: EC50 (nM)
Give bare numbers, in nM.

Qu. Tell me measured EC50 for Cc1cc(O)cc(C)c1C[C@H](N)C(=O)N1CCCC[C@@H]1C(=O)N[C@@H](Cc1ccccc1)C(=O)N[C@@H](Cc1ccccc1)C(N)=O [analog 3, Dmt-(R)-Pip-Phe-Phe-NH2] please.
Ans. 148

----------
Please respond with reported logD for every item in the list.
# TEST_SUMMARY: n-Octanol/water partition coefficient (log P)
# Format: physicochemical
# CONDITION_NOTES: n-octanol / 0.05 M HEPES buffer in 0.1 M NaCl, pH 7.4
Non-standard residues stand in square brackets, D forms with d. Residues, ends and D or L forms follow the SMILES beside them. Dmt = Cc1cc(O)cc(C)c1C[C@H](N)C(=O)O; d(β3hA) = C[C@@H](N)CC(=O)O

Worked cases, logD given:
compound="Cc1cc(O)cc(C)c1C[C@H](N)C(=O)N[C@H](C)CC(=O)N[C@@H](Cc1ccccc1)C(=O)N[C@@H](Cc1ccccc1)C(N)=O [analog 9, Dmt-(R)-β ^ 3 -Ala-Phe-Phe-NH2] (H-[Dmt][d(β3hA)]FF-NH2; N-terminus assumed)" observed=2.09
compound="Cc1cc(O)cc(C)c1C[C@H](N)C(=O)NC[C@@H](C)C(=O)N[C@@H](Cc1ccccc1)C(=O)N[C@@H](Cc1ccccc1)C(N)=O [analog 7, Dmt-(R)-β ^ 2 -Ala-Phe-Phe-NH2]" observed=2.33
compound="NC(=O)[C@H](Cc1ccccc1)NC(=O)[C@H](Cc1ccccc1)NC(=O)[C@H]1CCCCN1C(=O)[C@@H](N)Cc1ccc(O)cc1 [analog 2, Tyr-(R)-Pip-Phe-Phe-NH2]" observed=2.3

Quick request: logD for each listed item, please.
1. Cc1cc(O)cc(C)c1C[C@H](N)C(=O)N1CCCC[C@@H]1C(=O)N[C@@H](Cc1ccccc1)C(=O)N[C@@H](Cc1ccccc1)C(N)=O [analog 3, Dmt-(R)-Pip-Phe-Phe-NH2]
2. NC(=O)[C@H](Cc1ccccc1)NC(=O)[C@@H](CNC(=O)[C@@H]1CCCN1C(=O)[C@@H](N)Cc1ccc(O)cc1)Cc1cccc2ccccc12 [analog 10, Tyr-Pro-(R)-β ^ 2 -1-Nal-Phe-NH2]

Ans.
1. 2.49
2. 2.5

Can you give me logD for all of these, one by one?
1. C[C@H](CNC(=O)[C@@H](N)Cc1ccc(O)cc1)C(=O)N[C@@H](Cc1ccccc1)C(=O)N[C@@H](Cc1ccccc1)C(N)=O [analog 6, Tyr-(R)-β ^ 2 -Ala-Phe-Phe-NH2]
2. C[C@H](CC(=O)N[C@@H](Cc1ccccc1)C(=O)N[C@@H](Cc1ccccc1)C(N)=O)NC(=O)[C@@H](N)Cc1ccc(O)cc1 [analog 8, Tyr-(R)-β ^ 3 -Ala-Phe-Phe-NH2] (H-Y[d(β3hA)]FF-NH2; N-terminus assumed)
3. NC(=O)[C@H](Cc1ccccc1)NC(=O)C[C@@H](Cc1cccc2ccccc12)NC(=O)[C@@H]1CCCN1C(=O)[C@@H](N)Cc1ccc(O)cc1 [analog 12, Tyr-Pro-(R)-β ^ 3 -1-Nal-Phe-NH2]
4. Cc1cc(O)cc(C)c1C[C@H](N)C(=O)N1CCC[C@H]1C(=O)N[C@@H](CC(=O)N[C@@H](Cc1ccccc1)C(N)=O)Cc1cccc2ccccc12 [analog 13, Dmt-Pro-(R)-β ^ 3 -1-Nal-Phe-NH2]

Ans.
1: 1.75; 2: 1.71; 3: 3.01; 4: 3.16

----------
# SYSTEM_UNDER_TEST: human mu receptor (Homo sapiens, UniProt P35372)
# Construct: expressed in transfected cells; host or cells: CHO cells stably co-expressing Gαqi5
# TEST_SUMMARY: Calcium mobilization assay, CHO mu cells expressing Gαqi5
# Type: cell-based
# CONDITION_NOTES: intrinsic activity, Emax ratio to standard agonist EM-2; inactive = inactive up to 10 µM
Non-standard residues stand in square brackets, D forms with d. Residues, ends and D or L forms follow the SMILES beside them. Dmt = Cc1cc(O)cc(C)c1C[C@H](N)C(=O)O; d(β3hA) = C[C@@H](N)CC(=O)O
METRIC: mu α±SEM
Give bare numbers.

compound="Cc1cc(O)cc(C)c1C[C@H](N)C(=O)N1CCC[C@H]1C(=O)N[C@@H](Cc1ccccc1)C(=O)N[C@@H](Cc1ccccc1)C(N)=O [analog 1, Dmt-Pro-Phe-Phe-NH2]" system_under_test="human mu receptor (Homo sapiens, UniProt P35372)" observed=0.85

Qu. // fetch mu α±SEM given entry Cc1cc(O)cc(C)c1C[C@H](N)C(=O)N[C@H](C)CC(=O)N[C@@H](Cc1ccccc1)C(=O)N[C@@H](Cc1ccccc1)C(N)=O [analog 9, Dmt-(R)-β ^ 3 -Ala-Phe-Phe-NH2] (H-[Dmt][d(β3hA)]FF-NH2; N-terminus assumed)
Ans. 1.00

----------
Would you kindly list 100 x k, rate constant of degradation for each of these compounds?
# TEST_SUMMARY: Enzymatic degradation in rat brain homogenate
# Format: in vitro ADME
# CONDITION_NOTES: 37°C, up to 60 min
Non-standard residues stand in square brackets, D forms with d. Residues, ends and D or L forms follow the SMILES beside them. Dmt = Cc1cc(O)cc(C)c1C[C@H](N)C(=O)O; d(β3hA) = C[C@@H](N)CC(=O)O
One number for each entry, in per min.

Worked cases, answers included:
compound=Cc1cc(O)cc(C)c1C[C@H](N)C(=O)N1CCC[C@H]1C(=O)N[C@@H](Cc1ccccc1)C(=O)N[C@@H](Cc1ccccc1)C(N)=O reading_unit="per min" observed=3.31
compound="Cc1cc(O)cc(C)c1C[C@H](N)C(=O)N1CCC[C@@H](C(=O)N[C@@H](Cc2ccccc2)C(=O)N[C@@H](Cc2ccccc2)C(N)=O)C1 [analog 5, Dmt-(R)-Nip-Phe-Phe-NH2]" reading_unit="per min" observed=0.77

Give me 100 x k, rate constant of degradation for each of these compounds, listed below.
1. Cc1cc(O)cc(C)c1C[C@H](N)C(=O)N[C@H](C)CC(=O)N[C@@H](Cc1ccccc1)C(=O)N[C@@H](Cc1ccccc1)C(N)=O [analog 9, Dmt-(R)-β ^ 3 -Ala-Phe-Phe-NH2] (H-[Dmt][d(β3hA)]FF-NH2; N-terminus assumed)
2. C[C@H](CC(=O)N[C@@H](Cc1ccccc1)C(=O)N[C@@H](Cc1ccccc1)C(N)=O)NC(=O)[C@@H](N)Cc1ccc(O)cc1 [analog 8, Tyr-(R)-β ^ 3 -Ala-Phe-Phe-NH2] (H-Y[d(β3hA)]FF-NH2; N-terminus assumed)
3. NC(=O)[C@H](Cc1ccccc1)NC(=O)[C@H](Cc1ccccc1)NC(=O)[C@H]1CCCCN1C(=O)[C@@H](N)Cc1ccc(O)cc1 [analog 2, Tyr-(R)-Pip-Phe-Phe-NH2]

Ans.
1.90
0.82
0.57
